# subjectOfTest: SMARCA4 (Homo sapiens)
# Construct: endogenous in cells; host or cells: RKO cells (CRL-2577, ATCC)
# Sequence (P51532 whole entry): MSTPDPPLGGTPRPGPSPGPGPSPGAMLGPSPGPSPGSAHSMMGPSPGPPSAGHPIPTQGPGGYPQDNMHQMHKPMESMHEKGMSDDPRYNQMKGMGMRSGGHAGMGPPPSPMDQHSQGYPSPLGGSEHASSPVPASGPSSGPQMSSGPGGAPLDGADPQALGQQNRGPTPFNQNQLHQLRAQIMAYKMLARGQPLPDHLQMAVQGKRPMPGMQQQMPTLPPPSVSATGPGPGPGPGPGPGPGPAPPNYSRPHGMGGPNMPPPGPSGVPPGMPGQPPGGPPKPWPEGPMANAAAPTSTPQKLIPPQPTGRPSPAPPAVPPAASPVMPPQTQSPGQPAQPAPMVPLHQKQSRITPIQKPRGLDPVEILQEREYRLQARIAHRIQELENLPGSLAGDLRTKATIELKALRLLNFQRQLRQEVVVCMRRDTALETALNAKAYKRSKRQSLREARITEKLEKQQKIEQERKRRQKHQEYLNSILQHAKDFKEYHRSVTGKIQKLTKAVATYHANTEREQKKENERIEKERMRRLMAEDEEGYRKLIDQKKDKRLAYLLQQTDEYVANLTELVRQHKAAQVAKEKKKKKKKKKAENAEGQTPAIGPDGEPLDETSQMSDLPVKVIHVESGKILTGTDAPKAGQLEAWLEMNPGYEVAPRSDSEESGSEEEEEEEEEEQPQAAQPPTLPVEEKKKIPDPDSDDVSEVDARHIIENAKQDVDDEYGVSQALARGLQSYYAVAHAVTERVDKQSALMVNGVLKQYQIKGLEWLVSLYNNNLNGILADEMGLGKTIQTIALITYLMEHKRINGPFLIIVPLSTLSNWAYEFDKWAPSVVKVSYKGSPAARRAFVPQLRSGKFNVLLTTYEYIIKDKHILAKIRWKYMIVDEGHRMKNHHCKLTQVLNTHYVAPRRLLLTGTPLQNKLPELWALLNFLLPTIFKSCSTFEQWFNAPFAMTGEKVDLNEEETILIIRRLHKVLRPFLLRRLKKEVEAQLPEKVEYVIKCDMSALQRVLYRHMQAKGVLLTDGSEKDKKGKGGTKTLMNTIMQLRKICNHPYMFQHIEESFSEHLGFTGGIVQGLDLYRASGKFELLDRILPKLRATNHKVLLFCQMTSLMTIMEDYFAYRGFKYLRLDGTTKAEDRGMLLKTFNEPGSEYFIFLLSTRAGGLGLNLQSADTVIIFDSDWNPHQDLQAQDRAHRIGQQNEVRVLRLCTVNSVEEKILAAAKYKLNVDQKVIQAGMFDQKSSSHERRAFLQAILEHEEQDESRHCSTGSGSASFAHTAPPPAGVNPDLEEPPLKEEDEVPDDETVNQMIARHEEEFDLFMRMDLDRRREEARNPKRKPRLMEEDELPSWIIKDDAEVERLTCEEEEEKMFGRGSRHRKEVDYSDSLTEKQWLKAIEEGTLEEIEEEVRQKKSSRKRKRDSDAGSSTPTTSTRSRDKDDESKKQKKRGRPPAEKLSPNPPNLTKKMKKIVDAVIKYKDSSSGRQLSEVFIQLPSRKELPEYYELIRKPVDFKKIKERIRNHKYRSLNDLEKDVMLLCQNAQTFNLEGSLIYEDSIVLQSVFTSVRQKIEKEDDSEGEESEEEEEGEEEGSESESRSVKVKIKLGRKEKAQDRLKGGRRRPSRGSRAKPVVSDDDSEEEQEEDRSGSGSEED
# measurementNotes: SMARCA4 degradation analysis by imaging in RKO cells (DC50 A4)
# Type: cell-based
# setupConditions: tables 69, 70, 73, 76-78
recordedEndpoint: DC50 (nM)
The answer is to be given in nM; state only the numeric part.

Cc1ncsc1-c1ccc([C@H](COCCN2CCC(c3ccc4c(c3)n(C3CCCC3)c3nc(=O)c5c(Br)cccc5n43)CC2)NC(=O)[C@@H]2C[C@@H](O)CN2C(=O)[C@@H](NC(=O)C23CCCCC2C3)C(C)(C)C)cc1 (some centres unmarked) [Compound 42bh] ... 153

Find DC50 (SMARCA4 (Homo sapiens)) for the entry Cc1ncsc1-c1ccc([C@H](CCCN2CCC(c3ccc4c(c3)n(C3CCCC3)c3nc(=O)c5c(N)cccc5n43)CC2)NC(=O)[C@@H]2C[C@@H](O)CN2C(=O)[C@@H](NC(=O)C2(F)CC2)C(C)(C)C)cc1 [Compound 42x]
2

* * *

Quick list: Kd per entry.
# subjectOfTest: SMARCA2BD (Homo sapiens)
# Construct: the SMARCA2BD prepared at 0.5-0.7 mg/mL in coupling buffer
# Sequence (P51531 1373-1493 isoform P51531-2 limits assumed): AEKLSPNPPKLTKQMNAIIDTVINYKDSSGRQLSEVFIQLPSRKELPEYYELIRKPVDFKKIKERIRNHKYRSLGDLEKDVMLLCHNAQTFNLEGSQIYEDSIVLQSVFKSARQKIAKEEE
# measurementNotes: Binary SMARCA2 binding affinity determination (A2 binary): SMARCA2 SPR binding experiments
# setupConditions: binary SMARCA2 binding affinity; SPR at 6° C., pH 8.3; read-out: A2 binary
The answer is to be given in nM; state only the numeric part.

Reference set (2 entries):
COCCOCCOc1cc2c(cc1C1CCNCC1)n(C1CCCC1)c1nc(=O)c3c(Br)cccc3n21 [Compound 28y] ... 50
C[C@H]1CNCCN1c1ccc2c(c1)n(C1CCCC1)c1nc(=O)c3c(Br)cccc3n21 [Compound 28o] ... 40

Okay, now this compound:
Find Kd (SMARCA2BD (Homo sapiens)) for the entry O=c1nc2n(C3CCCC3)c3cc(C4CCNCC4)c(OC[C@@H]4CCCO4)cc3n2c2cccc(Br)c12 [Compound 28v]
45

* * *

# subjectOfTest: SMARCA2 (Homo sapiens, UniProt P51531)
# Construct: endogenous in cells; host or cells: RKO cells (CRL-2577, ATCC)
# Sequence (P51531 whole entry): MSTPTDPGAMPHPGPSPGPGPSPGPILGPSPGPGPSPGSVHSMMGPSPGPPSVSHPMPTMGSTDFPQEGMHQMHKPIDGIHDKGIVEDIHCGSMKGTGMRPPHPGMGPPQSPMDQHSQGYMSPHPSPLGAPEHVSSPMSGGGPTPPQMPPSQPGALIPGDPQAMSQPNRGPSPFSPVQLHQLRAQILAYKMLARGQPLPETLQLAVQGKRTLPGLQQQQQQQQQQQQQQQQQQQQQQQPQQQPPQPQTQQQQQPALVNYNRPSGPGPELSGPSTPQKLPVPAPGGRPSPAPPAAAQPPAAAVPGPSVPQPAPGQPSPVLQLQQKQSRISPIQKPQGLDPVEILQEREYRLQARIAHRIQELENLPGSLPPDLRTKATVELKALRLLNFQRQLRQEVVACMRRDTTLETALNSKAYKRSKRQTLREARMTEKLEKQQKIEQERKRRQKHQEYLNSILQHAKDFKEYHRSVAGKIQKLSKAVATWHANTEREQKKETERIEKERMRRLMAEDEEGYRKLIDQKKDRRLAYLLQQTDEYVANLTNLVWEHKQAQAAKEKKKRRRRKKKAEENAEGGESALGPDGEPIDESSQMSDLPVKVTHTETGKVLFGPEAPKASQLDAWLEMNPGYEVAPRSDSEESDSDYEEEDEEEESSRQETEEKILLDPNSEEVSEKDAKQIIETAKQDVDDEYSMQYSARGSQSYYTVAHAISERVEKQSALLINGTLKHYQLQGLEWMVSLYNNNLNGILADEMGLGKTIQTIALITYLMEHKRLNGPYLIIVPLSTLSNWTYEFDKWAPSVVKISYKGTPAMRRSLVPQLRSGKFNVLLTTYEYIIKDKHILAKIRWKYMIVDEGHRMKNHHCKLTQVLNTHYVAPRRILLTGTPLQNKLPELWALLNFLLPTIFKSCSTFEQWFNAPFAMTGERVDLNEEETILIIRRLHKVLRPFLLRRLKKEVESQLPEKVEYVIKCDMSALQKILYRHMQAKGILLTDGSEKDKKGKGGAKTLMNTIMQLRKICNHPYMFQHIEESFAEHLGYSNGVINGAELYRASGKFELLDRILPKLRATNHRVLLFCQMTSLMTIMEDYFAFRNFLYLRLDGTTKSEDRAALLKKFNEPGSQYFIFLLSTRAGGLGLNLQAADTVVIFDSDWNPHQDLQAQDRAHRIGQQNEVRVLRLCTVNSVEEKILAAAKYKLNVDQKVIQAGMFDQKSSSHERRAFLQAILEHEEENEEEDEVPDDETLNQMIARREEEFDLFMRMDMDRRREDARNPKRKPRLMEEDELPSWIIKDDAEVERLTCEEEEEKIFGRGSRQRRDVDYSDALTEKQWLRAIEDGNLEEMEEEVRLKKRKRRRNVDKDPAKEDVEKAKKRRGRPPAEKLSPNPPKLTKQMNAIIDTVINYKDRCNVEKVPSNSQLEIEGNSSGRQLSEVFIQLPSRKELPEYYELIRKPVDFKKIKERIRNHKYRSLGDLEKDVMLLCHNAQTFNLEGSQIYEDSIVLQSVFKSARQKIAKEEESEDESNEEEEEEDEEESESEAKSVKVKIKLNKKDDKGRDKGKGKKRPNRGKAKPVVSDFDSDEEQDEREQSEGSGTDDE
# measurementNotes: SMARCA2 degradation analysis by imaging in RKO cells (DC50 A2)
# Type: cell-based
# setupConditions: tables 69, 70, 73, 76-78
Quick list: DC50 per entry.
The answer is to be given in nM; state only the numeric part.

Would you kindly share the measured DC50 for Cc1ncsc1-c1ccc([C@H](CC[C@@H](C)CCN2CCC(c3ccc4c(c3)n(C3CCCC3)c3nc(=O)c5c(Br)cccc5n43)CC2)NC(=O)[C@@H]2C[C@@H](O)CN2C(=O)[C@@H](NC(=O)C2(F)CC2)C(C)(C)C)cc1 [Compound 42d] ?
0.7

Would you kindly share the measured DC50 for Cc1ncsc1-c1ccc([C@H](CO[C@@H](C)CN2CCC(c3ccc4c(c3)n(C3CCCC3)c3nc(=O)c5c(Br)cccc5n43)CC2)NC(=O)[C@@H]2C[C@@H](O)CN2C(=O)[C@@H](NC(=O)C2(F)CC2)C(C)(C)C)cc1 [Compound 42ac] ?
20

Would you kindly share the measured DC50 for Cc1ncsc1-c1ccc([C@H](CCCCCN2CCC(c3cc4c(cn3)n3c5cccc(Br)c5c(=O)nc3n4C3CCCC3)CC2)NC(=O)[C@@H]2C[C@@H](O)CN2C(=O)[C@@H](NC(=O)C2(F)CC2)C(C)(C)C)cc1 [Compound 42aw] ?
6

Would you kindly share the measured DC50 for Cc1ncsc1-c1ccc([C@@H](CC[C@@H](C)CCN2CCC(c3ccc4c(c3)n(C3CCCC3)c3nc(=O)c5c(Br)cccc5n43)CC2)NC(=O)[C@@H]2C[C@@H](O)CN2C(=O)[C@@H](NC(=O)C2(F)CC2)C(C)(C)C)cc1 [Compound 42as] ?
82
